- Tested on: 299254-011-R-J1-PDC complex spheroid viability;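 further: spheroids exposed to drugs for one week before measurement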
- TEST: Anticancer human tumor 299254-011-R-J1-PDC patient-derived melanoma cell line growth inhibition [POLQ]
- ASSAY CONTEXT: curve of first compound; second compound 3.16 µM
Exercise: for every item that follows, state its recorded IC50.

Can you give me IC50 for all of these, one by one?
1. CNCc1ccc(-c2[nH]c3cc(F)cc4c3c2CCNC4=O)cc1 + Nc1ccc(C#CCN(C(=O)Cc2ncc(C(F)(F)F)cc2C(F)(F)F)c2ccc(F)cc2)nn1
2. COc1cc2cc(C(=O)CCC(=O)O)sc2cc1OC + COC1C(OC(N)=O)C(O)C(Oc2ccc3c(O)c(NC(=O)c4ccc(O)c(CC=C(C)C)c4)c(=O)oc3c2C)OC1(C)C
3. C=CCn1c(=O)c2cnc(Nc3ccc(N4CCN(C)CC4)cc3)nc2n1-c1cccc(C(C)(C)O)n1 + Nc1ccc(C#CCN(C(=O)Cc2ncc(C(F)(F)F)cc2C(F)(F)F)c2ccc(F)cc2)nn1

1: > 10 µM; 2: > 10 µM; 3: > 1 µM

Numbers sourced from PubChem BioAssay AID1963849.
